Target: T1, RSV N-RNA complex (full-length N protein in ring-shaped complexes with bacterial RNA) (human respiratory syncytial virus, UniProt P03418 1-391)
T1 construct: human RSV nucleoprotein N, full length; concentrations are of N protomer; also called N-RNA rings; source: in lysate for the co-purification; purified (glutathione-Sepharose, thrombin, Superdex 200) as N-RNA complex; copies: 10-11
T1 sequence (looked up): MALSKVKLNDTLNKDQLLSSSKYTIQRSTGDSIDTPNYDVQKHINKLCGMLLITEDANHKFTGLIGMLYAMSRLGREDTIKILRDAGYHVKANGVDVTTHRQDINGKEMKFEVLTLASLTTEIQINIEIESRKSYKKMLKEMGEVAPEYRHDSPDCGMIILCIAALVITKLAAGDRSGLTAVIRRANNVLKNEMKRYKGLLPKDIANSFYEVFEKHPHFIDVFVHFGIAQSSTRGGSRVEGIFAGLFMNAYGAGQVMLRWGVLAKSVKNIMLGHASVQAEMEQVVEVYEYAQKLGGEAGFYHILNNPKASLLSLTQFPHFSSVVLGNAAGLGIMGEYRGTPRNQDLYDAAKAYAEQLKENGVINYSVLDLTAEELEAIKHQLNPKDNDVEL
Experiment: fluorescence polarisation; competition: unlabeled P_(10EE) varied against 200 nM BCN_(10EE) on 1 µM N-RNA; Tris pH 8 buffer; Hill equation; Ki from the IC50-to-Ki server
Conditions: both partners purified
observed property: Ki
Your reply should be a number followed by the unit it is expressed in.

Give reported Ki value for EDNDLELEDF (unlabeled equivalent of BCN_(10EE), which was made from P_(10EE) on resin; C-terminal 10 residues of RSV phosphoprotein P; source: synthetic peptide) [P_(10EE) (unlabeled RSV P 10-mer, Ser232Glu/Ser237Glu)] 2900 nM
